Let's look at some molecules and their measured IC50.
target-entity: PRMT5 (Homo sapiens)
Construct: purchased Viva (custom protein)
Sequence (O14744 whole entry): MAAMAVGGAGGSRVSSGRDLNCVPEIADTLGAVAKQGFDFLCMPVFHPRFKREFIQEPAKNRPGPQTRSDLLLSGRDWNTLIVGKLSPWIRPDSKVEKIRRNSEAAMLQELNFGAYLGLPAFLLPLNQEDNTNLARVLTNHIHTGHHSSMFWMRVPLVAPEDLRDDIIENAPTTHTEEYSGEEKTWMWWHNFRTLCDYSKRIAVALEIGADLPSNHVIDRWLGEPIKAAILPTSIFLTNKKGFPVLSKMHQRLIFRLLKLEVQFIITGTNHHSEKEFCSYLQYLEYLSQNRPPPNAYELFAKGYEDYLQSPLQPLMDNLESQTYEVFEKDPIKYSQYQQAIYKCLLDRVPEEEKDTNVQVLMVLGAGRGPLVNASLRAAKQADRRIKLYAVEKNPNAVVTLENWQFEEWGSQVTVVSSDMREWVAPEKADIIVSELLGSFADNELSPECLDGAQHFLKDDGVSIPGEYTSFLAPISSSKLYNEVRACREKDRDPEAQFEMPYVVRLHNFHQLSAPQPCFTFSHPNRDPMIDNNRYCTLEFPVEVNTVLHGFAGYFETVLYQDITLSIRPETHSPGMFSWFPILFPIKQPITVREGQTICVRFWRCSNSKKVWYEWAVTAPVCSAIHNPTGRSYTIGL
Sequence (Q9BQA1 whole entry partner): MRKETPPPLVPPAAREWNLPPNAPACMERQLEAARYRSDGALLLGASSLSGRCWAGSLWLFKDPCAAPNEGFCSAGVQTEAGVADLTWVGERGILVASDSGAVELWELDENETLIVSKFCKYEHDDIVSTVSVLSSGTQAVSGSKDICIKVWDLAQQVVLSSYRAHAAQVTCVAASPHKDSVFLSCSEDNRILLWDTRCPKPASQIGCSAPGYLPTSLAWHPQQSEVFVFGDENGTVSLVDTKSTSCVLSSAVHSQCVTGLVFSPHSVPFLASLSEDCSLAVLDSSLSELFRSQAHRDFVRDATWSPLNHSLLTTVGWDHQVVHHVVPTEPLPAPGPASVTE
method-summary: PRMT5 biochemical IC50 assay with SAM as cofactor
assay-setup: PRMT5, SAM as cofactor; read-out: SAM IC50

Here are 3 molecules together with their reported answers.
molecule: CNc1cccc([C@@H]2CCCCN2C(=O)C(=O)Nc2cnc(N)c(C)c2)c1 (single isomer, unassigned)
IC50: 50 to 500 nM

molecule: Cc1cc(NC(=O)C(=O)N2C[C@H](C)CC[C@H]2c2ccc(N)nc2)cnc1N (single isomer, unassigned)
IC50: 50 to 500 nM

molecule: COc1ncc(NC(=O)C(=O)N2C[C@@H](C)CC[C@@H]2c2ccc3sc([C@@H]4CCN(C)C[C@H]4C)nc3c2)cc1C(N)=O (racemic)
IC50: < 50 nM

Name the recorded IC50 of the molecule listed here: Cc1cc(NC(=O)C(=O)N2C[C@H](C)CC[C@H]2c2cccnc2)cnc1N (racemic) [Compound 146]
50 to 500 nM

# return recorded IC50 for input CCc1cc(NC(=O)C(=O)N2C[C@@H](C)CC[C@@H]2c2cccc([C@H]3CCCN(C)C3)c2)cnc1N (single isomer, unassigned) [Compound 1285]
50 to 500 nM

Name the recorded IC50 of the molecule listed here: CC(=O)Oc1ccc([C@H]2CC[C@H](C)CN2C(=O)C(=O)Nc2cncc(C(N)=O)c2)cc1 (single isomer, unassigned)
< 50 nM

Give me measured IC50, please, for this molecule: C[C@@H]1CC[C@@H](c2ccc3[nH]c(=O)[nH]c3c2)N(C(=O)C(=O)Nc2cncc(C(N)=O)c2)C1 (racemic)
50 to 500 nM
